Values were extracted from the DeepSol protein solubility set.

method: soluble on expression in E. coli; label from the status in PepcDB or PDB records

{"sequence-input": "MRVDLERQQHQFLRRTYGPQHRLTTQQALTVMRVAAREQTRYSQRTTQCVAAHLLEQRAAVQQELQRARQLQSGNVDDALDSLTELKDTVDDVRATLVDSVSATCDLDLEVDDAVLEHHHHHH", "soluble on expression in E. coli": "not soluble"}
{"sequence-input": "MGSDKIHHHHHHMAGWRTVVVNTHSKLSYKNNHLIFKDSYQTEMIHLSEIDILIMETTDIVLSTMLIKRLVDENILVIFCDDKRLPTAMLMPYYARHDSSLQLSRQMSWIEDVKADVWTSIIAQKILNQSFYLGECSFFEKSQSIMNLYHDLEPFDPSNREGHAARIYFNTLFGNDFSREQDNPINAGLDYGYSLLLSMFAREVVKCGCMTQFGLKHANQFNQFNLASDIMEPFRPIVDRIIYENRQSDFVKMKRELFSMFSETYSYNGKEMYLSNIVSDYTKKVIKSLNSDGNGIPEFRI", "soluble on expression in E. coli": "not soluble"}
{"sequence-input": "MGSDKIHHHHHHMASSIQGQENVMSQSEFDSALPNGIGLAPYLRMKQEGMTENESRIVEWLLKPGNLSCAPAIKDVAEALAVSEAMIVKVSKLLGFSGFRNLRSALEDYFSQSEQVLPSELAFDEAPQDVVNKVFNITLRTIMEGQSIVNVDEIHRAARFFYQARQRDLYGAGGSNAICADVQHKFLRIGVRCQAYPDAHIMMMSASLLQEGDVVLVVTHSGRTSDVKAAVELAKKNGAKIICITHSYHSPIAKLADYIICSPAPETPLLGRNASARILQLTLLDAFFVSVAQLNIEQANINMQKTGAIVDFFSPGALK", "soluble on expression in E. coli": "not soluble"}

====

method: soluble on expression in E. coli; label from the status in PepcDB or PDB records
property-name: soluble on expression in E. coli

{"sequence-input": "MGGSHHHHHHGMASALSQATKRKHVVKEVLGEHIVPSNQQQIVRVLRTPGNNLHEVETAQGQRFLVSMPSKYRKNIWIKRGDFLIVDPIEEGEKVKAEISFVLCKDHVRSLQKEGFWPEAFSEVAEKHNNRNRQTQPELPAEPQLSGEESSSEDDSDLFVNTNRRQYHESEEESEEEEAA", "property-name": "soluble on expression in E. coli", "value-measured": "not soluble"}
{"sequence-input": "MGSDKIHHHHHHMAANRFNGFTDYGIGIGLRIPHYRHILDNKPVVDWFEIISENYMIDGGRPLAVLDAILEQYRVVQHGVSMYFGSVDPLNREHLKRLKNLTRRTKTPWLTDHLCWGSVDGRYTHDLMPLPYTWEAIDVTVAKIKQVRDYLEIPVAVENVSSYAEFHESEMTEWEFLNEVVERADCGILLDVNNIYVSSMNHSFDPHVYVDSVPAERVAQIHIAGHSKYEKYILDTHDHPVIDPVWQLYAHAIRRCGPTATLLEWDDHIPSFEEVHNEALKAKKFLAENAEPVEKKIAAAEARV", "property-name": "soluble on expression in E. coli", "value-measured": "not soluble"}

====

method: soluble on expression in E. coli; label from the status in PepcDB or PDB records

{"sequence-input": "MLAAYRGRVMTRIAVELSLLTFVRSSELRFARWDEFDFDKSLWRIPAKREEIKGVRYSYRGMKMKEEHIVPLSRQAMILLEQLKQISGDKELLFPGDHDATKVMSENTVNSALRAMGYDTKTEVCGHGFRTMARGALGESGLWSEDAIERQLSHSERNSVRAAYIHTSEHLDERRLMVQWWADYLDANKIKPLEHHHHHH", "soluble on expression in E. coli": "not soluble"}
{"sequence-input": "MGSDKIHHHHHHMSEQMFEGWNGAIVVTPETVKIIYGNQHSKGEGEKEITLESIQSIELKKPRFLAQGYIQLILEGSKKKKGALAAMGDEHSIMINDEAQYKQFEQAKELIELFQHEQKLVSEQNEKGEGWREDVFKGGNGTLVVTPETIKIIYSWLHTRGRGEKTINIRSISSIQLKEPAVVAGYIQFTFQGSIENQSRSSFSAIDDQNTIAISNKHQFEDFKRAKALIESYQNQLYAPQIQSSSTSGADELKKYKELLDDGIISEEEFNAKKKQILGI", "soluble on expression in E. coli": "not soluble"}

====

method: soluble on expression in E. coli; label from the status in PepcDB or PDB records
property-name: soluble on expression in E. coli

{"sequence-input": "SPEWPPCLSVAPALVITMAAGKGAPLSPSAENRWRLSEPELGRGCKPVLLEKTNRLGPEAAVGRAGRDVGSAELALLVAPGKPRPGKPLPPKTRGEQRQSAFTELPRMKDRQVDAQAQEREHDDPTGQPGAPQLTQNIPRGPAGSKVFSVWPSGARSEQRSAFSKPTKRPAERPELTSVFPAGESADALGELSGLLNTTDLACWGRLSTPKLLVGDLWNLQALPQNAPLCSTFLGAPTLWLEHTQAQVPPPSSSSTTSWALLPPTLTSLGLSTQNWCAKCNLSFRLTSDLVFHMRSHHKKEHAGPDPHSQKRREEALACPVCQEHFRERHHLSRHMTSHS", "value-measured": "soluble"}
{"sequence-input": "IGYWHYDADTDTATWSKGLFKILGLPPSNVALNYSSFLDLVHPNDKAGLKNVVEKALKEKEDYDYELRVRNGDNDYKWYRTIARANPHK", "value-measured": "not soluble"}
{"sequence-input": "MNTPLQRPLADSTGLIENDAHALAVATALAQEFSIDAALRDRERQIPYSELDAVSRSGILGISIPLAFGGAEVNNVILAKVIAQIAQADGSLGQILQNHFHTLEALRVYGSRAQQQRIFAEVLAGALFGVAVDEQGTTNSQICTAVLAPSGEGYRISGRKFCATCAPYTRQILASAVDAQGARYMVFISLDALGLSIVDDGSCFGQRTVGGGSVMFDNVYVTSSDVVPFQVSLNDPNCVERHAQFMHAAVGTGIARAAYEDTLRFVREHARPWPEAAVDKARDDPLTIIEIGRLIIRLHAAEALLERAGAAVDLNRKAVCAENVALASMVVAAAQTLSTEVSLAAGSKLIELGGARATLSDYGLDRHWRNARVHTLYDPARWGPHQQGQQKLAPF", "value-measured": "not soluble"}
{"sequence-input": "MSLIRPQLDDIQTAQAQEKNLLNEFREKQSKLRNLQQYQHQLEEMRASFNQQLTQLPKESEIPGLVEDINMTGVNSGLKFKNIRLENEVKQEFFIEQPISIEATGDYHAFGAFVSGIAALPRIVTLHDFVIEAKQSKEKTDIPEVDYAVKAKTYRYIGVDEQGNASAVQANTSTTTPAQGGTPEGHHHHHH", "value-measured": "soluble"}
{"sequence-input": "MSRLSEPSPYVEFDRRQWRALRMSTPLALTEEELVGLRGLGEQIDLLEVEEVYLPLARLIHLQVAARQRLFAATAEFLGEPQQNPDRPVPFIIGVAGSVAVGKSTTARVLQALLARWDHHPRVDLVTTDGFLYPNAELQRRNLMHRKGFPESYNRRALMRFVTSVKSGSDYACAPVYSHLHYDIIPGAEQVVRHPDILILEGLNVLQTGPTLMVSDLFDFSLYVDARIEDIEQWYVSRFLAMRTTAFADPESHFHHYAAFSDSQAVVAAREIWRTINRPNLVENILPTRPRATLVLRKDADHSINRLRLRKL", "value-measured": "soluble"}
{"sequence-input": "MDKPVDKPAKGKRPAAAGRGSKPRSASAERVRRHREKMKAMGLKPVTIWVPEDYNSPEYKAEIRRECELINADPESEIVLEGMWELADFGDWKA", "value-measured": "not soluble"}

====

method: soluble on expression in E. coli; label from the status in PepcDB or PDB records

{"sequence-input": "MYARYAGLIFDMDGTLLDTEPTHRKAWREVLGRYGLRFDEQAMVALNGSPTWLIAQSIIELNHADLDPLSLAREKTDAVKSILLDCVEPLPLVEVVKAWHGRRPMSVGTGSESAIAEALLAHLGLRRYFDAVVAADHVQHHKPAPDTFLLCAQRMGVMPTQCVVFEDADFGLQAARAAGMDAVDVRLL", "soluble on expression in E. coli": "not soluble"}
{"sequence-input": "MDFKSSDAIRGPRTEDHLPHTAQAAVKIVIVGGFGVGKTTMVGSVSEIRPLTTEETMTQMGIGVDDNYGSESKTATTVAMDFGRISITEQLVLYLFGTPGQERFWFLWNGLFEGALGAVVLIDTRRLEVSFDVIGRLEERGVPFVIAVNDFPDAPRYPVEDLRGALDLTEDIPIVKCDARRRASSREVLMTLMHFLHSLAVSKTSVLEHHHHHH", "soluble on expression in E. coli": "not soluble"}
